Biological target: M1-type muscarinic cholinergic receptor (Rattus norvegicus)
Sequence (P08482 1-460): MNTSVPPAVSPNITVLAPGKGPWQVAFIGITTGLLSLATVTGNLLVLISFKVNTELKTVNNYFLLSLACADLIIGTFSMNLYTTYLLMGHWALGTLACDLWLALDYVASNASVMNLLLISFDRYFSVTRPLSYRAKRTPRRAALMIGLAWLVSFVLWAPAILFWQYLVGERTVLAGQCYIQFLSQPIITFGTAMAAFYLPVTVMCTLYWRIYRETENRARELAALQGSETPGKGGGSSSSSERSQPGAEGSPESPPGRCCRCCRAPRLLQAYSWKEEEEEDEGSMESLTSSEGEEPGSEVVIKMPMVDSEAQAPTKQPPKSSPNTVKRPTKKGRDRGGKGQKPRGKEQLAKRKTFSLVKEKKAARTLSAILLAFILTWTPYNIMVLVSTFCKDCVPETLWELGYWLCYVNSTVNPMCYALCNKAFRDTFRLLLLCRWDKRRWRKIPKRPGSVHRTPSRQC
Measurement type: pIC50
Numbers only, as −log10 of the molar value.

CCN(CC)CCCNc1cc2oc3ccccc3c2nn1 [SR 45041 A]
7.00
Cl.Cl.c1ccc2c(c1)sc1cc(NCCN3CCOCC3)nnc12 [SR 44289 A, dihydrochloride]
5.46
CCN(CC)CCNc1cc2oc3ccccc3c2nn1 [SR 45040 A]
6.15

Could I get pIC50 for every one of these entries?
1. CCN(CC)CCNc1cc2c(nn1)-c1ccccc1SC2.Cl.Cl [SR 96056 A, dihydrochloride]
2. Cl.Cl.c1ccc2c(c1)oc1cc(NCCN3CCOCC3)nnc12 [SR 44288 A, dihydrochloride]
3. Cl.Cl.c1ccc2c(c1)OCc1cc(NCCN3CCOCC3)nnc1-2 [SR 96094 A, dihydrochloride]

Response:
1. 6.82
2. 5.52
3. 5.44

---

system: M1 central muscarinic cholinergic receptors; test: Antagonism of rotational behavior induced by intrastriatal injection of pirenzepine in mice; type: in vivo, mice (Swiss, CD 1, female); conditions: 3 mg/kg, i.p., 15 minutes before pirenzepine; * p<0.05, ** p<0.01 vs control animals
Measurement type: Pirenzepine antagonism (percentage antagonism compared with control group, rotations) (%)
Numbers only, in %.

Solved entries:
CCN1CCCC1CNc1cc2oc3ccccc3c2nn1 (stereo not shown)
-52
CCN(CC)CCNc1cc2oc3ccccc3c2nn1
-47

Batch of 3 compounds: report Pirenzepine antagonism (percentage antagonism compared with control group, rotations) for each.
1. Cl.Cl.c1ccc2c(c1)OCc1cc(NCCN3CCOCC3)nnc1-2
2. CCN(CC)CCCNc1cc2oc3ccccc3c2nn1
3. Cl.Cl.c1ccc2c(c1)sc1cc(NCCN3CCOCC3)nnc12

Response:
1. -8
2. -72
3. -42

Record Pirenzepine antagonism (percentage antagonism compared with control group, rotations) per entry; entries follow.
1. Cl.Cl.c1ccc2c(c1)oc1cc(NCCN3CCOCC3)nnc12
2. CCN(CC)CCNc1cc2c(nn1)-c1ccccc1SC2.Cl.Cl

Response:
[-32, -14]

---

Read-out record for UniProt:H0VRN8: IC50
Sequence (H0VRN8 1-466): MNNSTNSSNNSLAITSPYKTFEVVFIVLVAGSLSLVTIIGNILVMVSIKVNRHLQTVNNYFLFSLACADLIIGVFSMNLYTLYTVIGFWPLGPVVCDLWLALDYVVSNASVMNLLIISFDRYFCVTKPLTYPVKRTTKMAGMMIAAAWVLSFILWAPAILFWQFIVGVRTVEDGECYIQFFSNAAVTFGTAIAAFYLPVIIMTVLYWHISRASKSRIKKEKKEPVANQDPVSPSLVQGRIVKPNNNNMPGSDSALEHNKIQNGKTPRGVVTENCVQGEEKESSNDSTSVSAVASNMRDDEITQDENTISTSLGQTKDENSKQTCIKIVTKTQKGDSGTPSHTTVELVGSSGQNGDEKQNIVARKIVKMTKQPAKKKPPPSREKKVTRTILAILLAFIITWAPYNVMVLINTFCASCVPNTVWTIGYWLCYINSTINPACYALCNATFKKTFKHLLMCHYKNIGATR
Numbers only, in µM.

Cl.Cl.c1ccc2c(c1)sc1cc(NCCN3CCOCC3)nnc12 [SR 44289 A, dihydrochloride]
100

Request: // lookup IC50 for CCN(CC)CCNc1cc2c(nn1)-c1ccccc1SC2.Cl.Cl [SR 96056 A, dihydrochloride]
Response: 3.6
